Target: T1, mouse big-ET-1 (mouse)
T1 construct: also called mBig-ET-1
T1 peptide: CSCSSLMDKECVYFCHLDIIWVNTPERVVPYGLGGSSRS
Test: SPR (Biacore T200), 37 C, mAb capture, peptide analyte
reported.metric: koff (s⁻¹)
API: value field is a number in s⁻¹; no unit string.

Study these solved cases before continuing.
[[record]]
binder = "H4H6330P (antibody, V domains shown, Human IgG4 Fc (prefix H4H)) VH: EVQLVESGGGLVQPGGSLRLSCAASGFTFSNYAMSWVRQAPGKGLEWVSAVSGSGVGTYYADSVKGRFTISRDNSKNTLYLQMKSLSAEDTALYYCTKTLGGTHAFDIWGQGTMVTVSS VL: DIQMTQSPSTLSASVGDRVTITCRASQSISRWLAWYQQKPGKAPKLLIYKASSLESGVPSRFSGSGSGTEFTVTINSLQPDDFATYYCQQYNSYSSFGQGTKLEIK"
reported_metric = "koff"
unit = "s⁻¹"
number = 0.072

[[record]]
binder = "H4H6353P (antibody, V domains shown, Human IgG4 Fc (prefix H4H)) VH: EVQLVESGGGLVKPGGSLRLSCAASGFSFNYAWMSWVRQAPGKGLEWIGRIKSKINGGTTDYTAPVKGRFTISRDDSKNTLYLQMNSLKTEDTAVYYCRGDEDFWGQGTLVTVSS VL: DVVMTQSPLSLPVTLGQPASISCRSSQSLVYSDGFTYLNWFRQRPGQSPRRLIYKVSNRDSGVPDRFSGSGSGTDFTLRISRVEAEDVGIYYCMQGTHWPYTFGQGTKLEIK"
reported_metric = "koff"
unit = "s⁻¹"
number = 0.00236


// next entry
Returns the measured koff for the input binder. Input: H4H6323P (antibody, V domains shown, Human IgG4 Fc (prefix H4H)) VH: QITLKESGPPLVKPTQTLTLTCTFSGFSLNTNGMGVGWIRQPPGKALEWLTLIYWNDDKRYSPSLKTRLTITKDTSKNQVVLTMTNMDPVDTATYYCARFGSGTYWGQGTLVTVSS VL: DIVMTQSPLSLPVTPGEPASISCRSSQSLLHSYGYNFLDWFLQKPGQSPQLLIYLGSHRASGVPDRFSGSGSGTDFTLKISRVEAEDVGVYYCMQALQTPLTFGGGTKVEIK
0.0192

All figures here come from patent US20130216547A1.
